# System: CD2F1 mice, L1210 leukemia ip, survival T/C
# assay_procedure: NCI In Vivo Anticancer Drug Screen. Data for tumor model L1210 Leukemia (intraperitoneal) in CD2F1 (CDF1) mice
# settings: endpoint: mean survival time; dose: 400.0 mg/kg/injection; schedule: Q01DX001 (ip); vehicle: saline; higher = longer survival
Toxic doses and inconclusive results are not listed.
reported_endpoint: T/C

Some solved cases for reference:
O=C(C[P+](c1ccccc1)(c1ccccc1)c1ccccc1)C[P+](c1ccccc1)(c1ccccc1)c1ccccc1 | 92 % of control
COC(=O)C1C2C=CC(C2)C1C(=O)O (stereo unspecified) | 103 % of control
NC(=O)CCC(=O)NCCN1CC1 | 115 % of control
O=S(=O)(O)c1ccc(N=Nc2cc(O)cc3ccccc23)cc1 | 96 % of control
COC(=O)CNC(=O)C(F)(F)F | 104 % of control

Query T/C for CCCC(C)(C)OC(=O)c1ccc([N+](=O)[O-])cc1
100 % of control
